composite z-score values by entry
Assay: probe aShh binding to arrayed compounds – biochemical, biotinylated probe, 635/667 nm fluorescence, primary screen (AID 1114);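 further: probe is biotin-labelled aShh protein from a stem cell growth factor screen; measures binding of labelled protein to compounds printed on the slide; score merges feature fluorescence at 667 nm with signal-to-noise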
Settings: small-molecule microarray, higher = more signal

[
  {
    "compound": "O=C(NCCN1CCOCC1)[C@@H]1c2ccccc2C(=O)N(Cc2cc(C(F)(F)F)cc(C(F)(F)F)c2)[C@H]1c1ccc(CO)cc1",
    "composite z-score": 0.123
  },
  {
    "compound": "COCC(=C=CC[C@H](O)c1cccc(OCCO)c1)CCO",
    "composite z-score": -0.156
  },
  {
    "compound": "C=CCN1C(=O)[C@]2(Cc3ccccc3)N=C(c3ccc(OCCCO)cc3)O[C@@H]2c2ccccc21",
    "composite z-score": 0.531
  },
  {
    "compound": "CN(C)CCCC[C@@H]1NC(=O)[C@H]2C[C@@H](C(=O)NCCCCCN)[C@@H](c3cccc(OCCO)c3)N2C1=O",
    "composite z-score": 0.351
  },
  {
    "compound": "C=CC[C@]1(C(=O)N2CCOCC2)N=C(c2ccc(OCCCO)cc2)O[C@H]1c1ccccc1N=[N+]=[N-]",
    "composite z-score": 0.308
  },
  {
    "compound": "O=C(O)[C@H]1C[C@H]2C(=O)N3CCC[C@H]3C(=O)N2[C@H]1c1ccc(O)cc1",
    "composite z-score": -0.348
  },
  {
    "compound": "C=CC1c2cc(O)c(OC)cc2CCN1Cc1cccc(OC(F)(F)F)c1 (stereo not given)",
    "composite z-score": -0.0146
  },
  {
    "compound": "C#CCOc1ccc(C[C@@H](C(=O)OC)N(CC#C)[C@@H](/C=C/C2CC2)[C@H](O)Cc2ccccc2)cc1",
    "composite z-score": -0.221
  },
  {
    "compound": "COc1ccc([Si](C)(C)[C@@H]2[C@@H](CCO)O[C@]3(C(=O)N(Cc4cccc(N5CCOC5=O)c4)c4ccccc43)[C@H]2C)cc1",
    "composite z-score": 0.0756
  },
  {
    "compound": "CCCCCCc1nc(-c2ccc(-c3ccc(Cl)c(Cl)c3)o2)c(C)c2c1[Si](C(C)C)(C(C)C)OC2",
    "composite z-score": -0.123
  },
  {
    "compound": "CCCC1(C(=O)OC)C=C2C(=C(c3ccccc3)C(=O)C2C)CN1 (stereo not given)",
    "composite z-score": 0.108
  },
  {
    "compound": "CC(C)NC(=O)[C@@]1(Cc2ccccc2I)c2ccccc2C(=O)N(Cc2ccccc2Cl)[C@H]1c1ccc(CO)cc1",
    "composite z-score": 0.0062
  },
  {
    "compound": "NC(=O)[C@@H]1[C@H]2C(=O)O[C@H](c3ccccc3)[C@H](c3ccccc3)N2[C@H](c2ccc(O)cc2)[C@@]12C(=O)Nc1ccc(C#CC3=CCCCC3)cc12",
    "composite z-score": 1.78
  },
  {
    "compound": "COc1ccccc1CN1C(=O)c2ccccc2[C@@H](C(=O)NCc2ccccc2)[C@@H]1c1ccc(CO)cc1",
    "composite z-score": -0.374
  },
  {
    "compound": "COc1ccc(C(O)C2C=CC3C(=O)N(C)C(=O)C3N2NC(=O)OC(C)(C)C)c2ccccc12 (stereo not given)",
    "composite z-score": 0.275
  },
  {
    "compound": "O=C(CS)NCCCCCNC(=O)[C@H]1C[C@H]2C(=O)NCC(=O)N2[C@H]1c1cccc(OCCO)c1",
    "composite z-score": 0.294
  },
  {
    "compound": "[N-]=[N+]=NCc1ccccc1[C@H]1OC(c2ccc(OCCCO)cc2)=N[C@@]1(Cc1ccccc1)C(=O)N1CCCCC1",
    "composite z-score": -0.0243
  },
  {
    "compound": "C[N+](C)(C)CCCCCCNC(=O)[C@H]1C[C@H]2C(=O)N[C@@H](Cc3ccccc3)C(=O)N2[C@H]1c1cccc(OCCO)c1",
    "composite z-score": -0.243
  },
  {
    "compound": "COc1ccc(C(=O)Nc2cccc(CN3C(=O)[C@]4(O[C@H](CCn5cc(CCO)nn5)[C@@H]([Si](C)(C)c5ccc(OC)cc5)[C@@H]4C)c4ccccc43)c2)cc1",
    "composite z-score": -0.0769
  },
  {
    "compound": "COCCOC(=O)N1C(=O)[C@@]2(c3cc(C#CCCO)ccc31)[C@H](c1ccc(OCCO)cc1)N1[C@H](c3ccccc3)[C@H](c3ccccc3)OC(=O)[C@H]1[C@@H]2C(N)=O",
    "composite z-score": 0.171
  },
  {
    "compound": "C=C(CCCC)/C(=C/C[C@@H](OC(C)=O)c1cccc(OCCO)c1)c1cnc2ccccc2c1",
    "composite z-score": -0.0709
  },
  {
    "compound": "[N-]=[N+]=Nc1ccccc1[C@H]1OC(c2ccc(OCCCO)cc2)=N[C@@]1(CCS(=O)(=O)c1ccccc1)C(=O)NCc1ccccc1",
    "composite z-score": 0.0723
  },
  {
    "compound": "COc1cc2c(cc1O)C(c1cccs1)N(Cc1ccc([N+](=O)[O-])o1)CC2 (stereo not given)",
    "composite z-score": 0.155
  },
  {
    "compound": "CS(=O)(=O)CCOC(=O)C1=CC(CCCO)=CC(C2CC2)N(Cc2cc3c(cc2Br)OCO3)C=C1C(=O)OCCS(C)(=O)=O (stereo not given)",
    "composite z-score": -0.0035
  },
  {
    "compound": "C=C(/C(=C/C[C@H](OC(=O)c1ccncc1)c1ccc(OCCO)cc1)c1cc(C(=O)OC)ccc1OC)C(C)C",
    "composite z-score": 0.111
  },
  {
    "compound": "C#CCN1[C@@H](Cc2ccc(O)cc2)C(=O)O[C@H](Cc2ccccc2)[C@@H]1/C=C/C1CC1",
    "composite z-score": 0.163
  },
  {
    "compound": "C[N+](C)(C)CCCC[C@@H]1NC(=O)[C@H]2C[C@@H](C(=O)NCCCCCCNC(=O)CS)[C@@H](c3ccc(O)cc3)N2C1=O",
    "composite z-score": -0.138
  },
  {
    "compound": "CC(=O)NCCCC[C@@H]1NC(=O)[C@H]2C[C@@H](C(=O)NCCCCCNC(=O)CS)[C@@H](c3ccc(O)cc3)N2C1=O",
    "composite z-score": -0.0035
  },
  {
    "compound": "O=C1C[C@@](C(=O)NCc2ccccc2)(c2ccc([N+](=O)[O-])cc2)[C@@H](c2ccc(CO)cc2)N1CC12CC3CC(CC(C3)C1)C2",
    "composite z-score": -0.512
  },
  {
    "compound": "COC(=O)C(CC#Cc1ccc2c(c1)[C@]1(C(=O)N2)[C@H](c2ccccc2OCCO)N2[C@H](c3ccccc3)[C@H](c3ccccc3)OC(=O)[C@H]2[C@@H]1C(N)=O)C(=O)OC",
    "composite z-score": 0.679
  }
]
